# ASSAY_TEXT: in vitro
# CONDITION_DETAILS: dog, mdck
MEASURED_METRIC: MCC (µg/mL)
Please give a number only; it is taken to be in µg/mL.

Prompt line: Look up MCC: N[C@@H]1CSCON2CCc3c([nH]c4ccccc34)[C@H]12 [Compound 63, (1S.13bS)-debromo Eudistomin L]
Response line: 8

Prompt line: Look up MCC: COc1ccc2[nH]c3c(c2c1)CCN1OCSCC(N)C31 [Compound 67, (1S,13bS)-5-methoxy Eudistomin L]
Response line: 0.8

* * *

# Test system: Reovirus-1
# ASSAY_TEXT: inhibition of virus induced cytopathogenicity, Vero cells, Reovirus-1
# Format: cell-based
Would you mind telling me the reported MIC of each entry?
Please give a number only; it is taken to be in µg/mL.

Prompt line: Look up MIC: NC(=O)c1ncn([C@@H]2O[C@H](CO)[C@@H](O)[C@H]2O)n1 [Ribavirin, ribavirin, reference compound]
Response line: 125

Prompt line: Look up MIC: N[C@@H]1CSCON2CCc3c([nH]c4ccccc34)[C@H]12 [Compound 63, (1S.13bS)-debromo Eudistomin L]
Response line: 0.4

Prompt line: Look up MIC: COc1ccc2[nH]c3c(c2c1)CCN1OCSCC(N)C31 [Compound 67, (1S,13bS)-5-methoxy Eudistomin L]
Response line: 0.045

* * *

# Test system: Herpes simplex virus-1 (F)
Would you mind telling me the reported MIC of each entry?
Please give a number only; it is taken to be in µg/mL.

Prompt line: Param readout= MIC; system= Herpes simplex virus-1 (F); entry= COc1ccc2[nH]c3c(c2c1)CCN1OCSCC(N)C31 [Compound 67, (1S,13bS)-5-methoxy Eudistomin L] ; returns value.
Response line: 0.039

Prompt line: Param readout= MIC; system= Herpes simplex virus-1 (F); entry= N[C@@H]1CSCON2CCc3c([nH]c4ccccc34)[C@H]12 [Compound 63, (1S.13bS)-debromo Eudistomin L] ; returns value.
Response line: 0.25

* * *

Would you mind telling me the reported MCC of each entry?
# ASSAY_TEXT: in vitro
# CONDITION_DETAILS: rabbit, primary rabbit kidney cells

Prompt line: Look up MCC: N[C@@H]1CSCON2CCc3c([nH]c4ccccc34)[C@H]12 [Compound 63, (1S.13bS)-debromo Eudistomin L]
Response line: ≥ 25 µg/mL

Prompt line: Look up MCC: COc1ccc2[nH]c3c(c2c1)CCN1OCSCC(N)C31 [Compound 67, (1S,13bS)-5-methoxy Eudistomin L]
Response line: ≥ 2.5 µg/mL

Prompt line: Look up MCC: NC(=O)c1ncn([C@@H]2O[C@H](CO)[C@@H](O)[C@H]2O)n1 [Ribavirin, ribavirin, reference compound]
Response line: ≥ 400 µg/mL

* * *

# Tested on: Polio virus
# ASSAY_TEXT: microbe, parasite or virus in culture
# Format: cell-based
# CONDITION_DETAILS: read-out: MIC Polio virus
Would you mind telling me the reported MIC of each entry?
Please give a number only; it is taken to be in µg/mL.

Prompt line: Param readout= MIC; system= Polio virus; entry= N[C@@H]1CSCON2CCc3c([nH]c4ccccc34)[C@H]12 [Compound 63, (1S.13bS)-debromo Eudistomin L] ; returns value.
Response line: 0.7

Prompt line: Param readout= MIC; system= Polio virus; entry= COc1ccc2[nH]c3c(c2c1)CCN1OCSCC(N)C31 [Compound 67, (1S,13bS)-5-methoxy Eudistomin L] ; returns value.
Response line: 0.045

Prompt line: Param readout= MIC; system= Polio virus; entry= NC(=O)c1ncn([C@@H]2O[C@H](CO)[C@@H](O)[C@H]2O)n1 [Ribavirin, ribavirin, reference compound] ; returns value.
Response line: 110

Source: patent US5348949A
